Molecular target: T1, human LTβR extracellular domain fused with an Fc fragment at the C-terminus (human, UniProt P36941 31-227)
T1 construct: extracellular domain; Bought; also called hLTβR; not shown: Fc fragment at the C-terminus
T1 sequence (P36941 31-227): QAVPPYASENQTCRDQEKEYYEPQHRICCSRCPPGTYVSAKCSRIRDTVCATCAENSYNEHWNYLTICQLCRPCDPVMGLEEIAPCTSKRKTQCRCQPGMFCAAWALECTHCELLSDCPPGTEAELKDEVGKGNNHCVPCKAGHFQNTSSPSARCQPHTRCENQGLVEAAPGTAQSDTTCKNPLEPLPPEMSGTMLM
Test: ELISA on coated target-Fc
// values below are reported EC50
Give the value; after it, write the unit.

Below: 2 binders and their reported EC50.
binder="LIGHT-10 (ligand, Printed mutations: G150S, T161P, L220S; Soluble protein carries an N-terminal His tag) DGPAGSWEQLIQERRSHEVNPAAHLTGANSSLTGSGGPLLWETQLGLAFLRGLSYHDGALVVTKAGYYYIYSKVQLSGVGCPLGLASPITHGLYKRTPRYPEELELLVSQQSPCGRATSSSRVWWDSSFLGGVVHLEAGEKVVVRVSDERLVRLRDGTRSYFGAFMV" measuredvalue="0.0441 µg/mL"
binder="LIGHT-31 (ligand, Printed mutations: S160R, T161S, L220S; Soluble protein carries an N-terminal His tag) DGPAGSWEQLIQERRSHEVNPAAHLTGANSSLTGSGGPLLWETQLGLAFLRGLSYHDGALVVTKAGYYYIYSKVQLGGVGCPLGLARSITHGLYKRTPRYPEELELLVSQQSPCGRATSSSRVWWDSSFLGGVVHLEAGEKVVVRVSDERLVRLRDGTRSYFGAFMV" measuredvalue="0.0867 µg/mL"

Reported EC50 of LIGHT-37 (ligand, Printed mutations: A190T, F202Y, K214E; Soluble protein carries an N-terminal His tag) DGPAGSWEQLIQERRSHEVNPAAHLTGANSSLTGSGGPLLWETQLGLAFLRGLSYHDGALVVTKAGYYYIYSKVQLGGVGCPLGLASTITHGLYKRTPRYPEELELLVSQQSPCGRTTSSSRVWWDSSYLGGVVHLEAGEEVVVRVLDERLVRLRDGTRSYFGAFMV : 0.0434 µg/mL

Recorded values, source patent US20250361288A1.
